biological target: His-tagged N-terminal ATP binding domain (amino acid residues 9-236) of HSP90α (Homo sapiens, UniProt P07900); assay: HSP90 inhibitor binding potency: TRF competition binding assay; conditions: Table II; read-out: Hsp90 IC50 Range
observable: IC50

Examples with answers:
1) Cc1nc(N)nc2c1C(=O)CC(c1ncsc1-c1ccccc1F)C2 (stereo not drawn) [Compound 302] | < 1000 nM
2) Cc1nc(N)nc2c1C(=O)CC(c1ccc(F)cc1-c1cncc(Cl)n1)C2 (stereo not drawn) [Compound 219] | < 1000 nM
3) COc1cccc(-c2ccc(F)cc2C2CC(=O)c3c(C)nc(N)nc3C2)n1 (stereo not drawn) [Compound 283] | < 1000 nM
4) CCOc1cccc(-n2ccnc2C2CC(=O)c3c(C)nc(N)nc3C2)c1 (stereo not drawn) [Compound 191] | > 10000 nM
5) COc1ncccc1-n1ccnc1C1CC(=O)c2c(C)nc(N)nc2C1 (stereo not drawn) [Compound 202] | < 1000 nM

Exam item: What does the record list as IC50 for Nc1ncc2c(n1)CC(c1ccccc1Br)CC2=O (stereo not drawn) [Compound 244] ?
Marked response: > 10000 nM

Exam item: What does the record list as IC50 for Cc1nc(N)nc2c1C(=O)CC(c1ncsc1-c1cc(F)ccc1F)C2 (stereo not drawn) [Compound 292] ?
Marked response: < 1000 nM

Exam item: What does the record list as IC50 for CCOc1cncc(-c2cc(F)ccc2[C@@H]2CC(=O)c3c(C)nc(N)nc3C2)n1 [Compound 336] ?
Marked response: < 1000 nM

Exam item: What does the record list as IC50 for CC(=O)Nc1cccc(Cc2nc(N)nc3c2C(=O)CC(c2ccccc2)C3)c1 (stereo not drawn) [Compound 310] ?
Marked response: > 10000 nM

* * *

target: His-tagged N-terminal ATP binding domain (amino acid residues 9-236) of HSP90α (Homo sapiens, UniProt P07900); experiment: HSP90 inhibitor binding potency: TRF competition binding assay; conditions: Table II; read-out: Hsp90 IC50 Range
pIC50: −log10 of the molar value.
Items are presented alongside their recorded pIC50.

Examples with answers:
1) COc1ccc(Br)c(C2CC(=O)c3c(C)nc(N)nc3C2)c1 (stereo not shown) [Compound 239] | 5.00 to 6.00
2) Cc1ccc(F)c(-c2scnc2C2CC(=O)c3c(C)nc(N)nc3C2)c1 (stereo not shown) [Compound 293] | > 6.00

The record that follows has no pIC50 shown yet.
Exam item: What does the record list as pIC50 for COc1nc(-c2cc(F)ccc2C2CC(=O)c3c(C)nc(N)nc3C2)ncc1F (stereo not shown) [Compound 224] ?
Marked response: > 6.00

* * *

target: His-tagged N-terminal ATP binding domain (amino acid residues 9-236) of HSP90α (Homo sapiens); assay: HSP90 inhibitor binding potency: TRF competition binding assay; details: Table II; read-out: Hsp90 IC50 Range
Items are presented alongside their recorded IC50.

1. Cc1nc(N)nc2c1C(=O)C(NC(=O)c1ccccc1)C(c1ccccc1)C2 (stereo not drawn) | > 10000 nM

Exam item: What does the record list as IC50 for COc1ccc(F)c(-c2cc(F)ccc2[C@H]2CC(=O)c3c(C)nc(N)nc3C2)n1 ?
Marked response: 1000 to 10000 nM

Exam item: What does the record list as IC50 for Cc1nc(N)nc2c1C(=O)CC(c1ccc(F)cc1OCC1CC1)C2 (stereo not drawn) ?
Marked response: < 1000 nM

Exam item: What does the record list as IC50 for Cc1nc(N)nc2c1C(=O)CC(c1c(-c3cccnc3F)cnn1Cc1ccccc1)C2 (stereo not drawn) ?
Marked response: 1000 to 10000 nM

* * *

molecular target: His-tagged N-terminal ATP binding domain (amino acid residues 9-236) of HSP90α (Homo sapiens, UniProt P07900); assay: HSP90 inhibitor binding potency: TRF competition binding assay; conditions: Table II; read-out: Hsp90 IC50 Range
pIC50: −log10 of the molar value.
observable: pIC50

Examples with answers:
1. Cc1nc(N)nc2c1C(=O)CC(c1ccc(F)cc1-c1ncc(C(F)(F)F)cn1)C2 (stereo not drawn) | > 6.00
2. COc1ncncc1-c1cc(F)ccc1C1CC(=O)c2c(C)nc(N)nc2C1 (stereo not drawn) | > 6.00
3. Cc1nc(N)nc2c1C(=O)CC(c1cc(F)ccc1-c1cncnc1)C2 (stereo not drawn) | < 5.00
4. Cc1nc(N)nc2c1C(=O)CC(c1ncccc1OC1CCCC1)C2 (stereo not drawn) [Compound 177] | > 6.00
5. Cc1nc(N)nc2c1C(=O)CC(c1cnccc1-c1cccc(Br)c1)C2 (stereo not drawn) | > 6.00
6. COc1nc(-c2cc(F)ccc2[C@@H]2CC(=O)c3c(C)nc(N)nc3C2)ncc1C | > 6.00
7. COc1nc(-c2cc(F)ccc2[C@H]2CC(=O)c3c(C)nc(N)nc3C2)ncc1C | > 6.00
8. COc1nc(-c2cc(F)ccc2[C@@H]2CC(=O)c3c(C)nc(N)nc3C2)cnc1N | > 6.00

Exam item: What does the record list as pIC50 for COc1ccccc1-n1ccnc1C1CC(=O)c2c(C)nc(N)nc2C1 (stereo not drawn) ?
Marked response: > 6.00

Exam item: What does the record list as pIC50 for CCc1nc(N)nc2c1C(=O)CC(c1ccc(F)cc1Br)C2 (stereo not drawn) ?
Marked response: < 5.00

Exam item: What does the record list as pIC50 for Cc1cnc(C)c(-c2cc(F)ccc2C2CC(=O)c3c(C)nc(N)nc3C2)n1 (stereo not drawn) ?
Marked response: 5.00 to 6.00

* * *

biological target: His-tagged N-terminal ATP binding domain (amino acid residues 9-236) of HSP90α (Homo sapiens); test: HSP90 inhibitor binding potency: TRF competition binding assay; conditions: Table I; read-out: Hsp90 IC50 Range
observable: IC50

1. Cc1nc(N)nc2c1C(=O)CC(c1ccc(F)cc1-c1cccnc1F)C2 (centres unmarked) | < 1 µM
2. Cc1nc(N)nc2c1C(=O)CC(c1c(Cl)cccc1OCCN1CCN(C)CC1)C2 (centres unmarked) | > 10 µM
3. Cc1nc(N)nc2c1C(=O)CC(c1cccc(-c3ccccn3)c1)C2 (centres unmarked) | > 10 µM

Exam item: What does the record list as IC50 for COc1cccc(-c2cc(F)ccc2C2CC(=O)c3c(C)nc(N)nc3C2)n1 (centres unmarked) ?
Marked response: < 1 µM

Exam item: What does the record list as IC50 for Cc1nc(N)nc2c1C(=O)CC(c1ccccc1-c1ccccc1CO)C2 (centres unmarked) [Compound 67] ?
Marked response: < 1 µM

* * *

molecular target: His-tagged N-terminal ATP binding domain (amino acid residues 9-236) of HSP90α (Homo sapiens); test: HSP90 inhibitor binding potency: TRF competition binding assay; settings: Table II; read-out: Hsp90 IC50 Range
Items are presented alongside their recorded IC50.

1. Cc1nc(N)nc2c1C(=O)CC(c1ccc(F)cc1-c1cccc(O)n1)C2 (stereo not drawn) | 1 to 10 µM
2. COc1nc(-c2cc(F)ccc2[C@@H]2CC(=O)c3c(C)nc(N)nc3C2)c(C)nc1N | < 1 µM
3. COc1nc(-c2cc(F)ccc2C2CC(=O)c3c(C)nc(N)nc3C2)ncc1Cl (stereo not drawn) | < 1 µM

Exam item: What does the record list as IC50 for Cc1nc(N)nc2c1C(=O)CC(c1ccccc1)C2C (stereo not drawn) ?
Marked response: 1 to 10 µM

Exam item: What does the record list as IC50 for Cc1nc(N)nc2c1C(=O)CC(c1cccc(F)c1Br)C2 (stereo not drawn) ?
Marked response: 1 to 10 µM

Exam item: What does the record list as IC50 for COc1cccc(-c2ccccc2C2CC(=O)c3c(C)nc(N)nc3C2)c1F (stereo not drawn) ?
Marked response: 1 to 10 µM

Exam item: What does the record list as IC50 for Cc1nc(N)nc2c1C(=O)CC(c1cccc(F)c1-c1cccnc1F)C2 (stereo not drawn) ?
Marked response: < 1 µM

Exam item: What does the record list as IC50 for Cc1nc(N)nc2c1C(=O)CC(c1ccccc1SC(C)(C)C)C2 (stereo not drawn) ?
Marked response: < 1 µM

Exam item: What does the record list as IC50 for CCc1cc(-n2ccnc2C2CC(=O)c3c(C)nc(N)nc3C2)ccc1C (stereo not drawn) ?
Marked response: 1 to 10 µM

* * *

biological target: His-tagged N-terminal ATP binding domain (amino acid residues 9-236) of HSP90α (Homo sapiens); experiment: HSP90 inhibitor binding potency: TRF competition binding assay; settings: Table II; read-out: Hsp90 IC50 Range
observable: IC50

Examples with answers:
1. CCc1cccc(-c2cc(F)ccc2C2CC(=O)c3c(C)nc(N)nc3C2)n1 (centres unmarked) | < 1 µM
2. COc1cccc(-n2ccnc2C2CC(=O)c3c(C)nc(N)nc3C2)n1 (centres unmarked) | < 1 µM
3. Cc1nc(N)nc2c1C(=O)CC(c1ccc(F)cc1OC(C)C)C2 (centres unmarked) | < 1 µM
4. COc1ncccc1-c1ccc(F)cc1C1CC(=O)c2c(C)nc(N)nc2C1 (centres unmarked) | < 1 µM
5. COc1cccc(-c2cc(F)c(C3CC(=O)c4c(C)nc(N)nc4C3)c(F)c2)n1 (centres unmarked) | > 10 µM

Exam item: What does the record list as IC50 for COc1nc(-c2cc(F)ccc2[C@H]2CC(=O)c3c(C)nc(N)nc3C2)ncc1F ?
Marked response: 1 to 10 µM

Exam item: What does the record list as IC50 for Cc1nc(N)nc2c1C(=O)C[C@@H](c1ccc(F)cc1-c1cnc3ncn(C)c3n1)C2 ?
Marked response: > 10 µM

Exam item: What does the record list as IC50 for COc1nc(-n2ccnc2[C@@H]2CC(=O)c3c(C)nc(N)nc3C2)ncc1C ?
Marked response: < 1 µM
